meta.source: ChEMBL document CHEMBL2218924

target: Ribosomal protein S6 kinase alpha-4 (Homo sapiens) (UniProt O75676); settings: at 10 µM
Label t when residual activity is at or above 90%; anything below gets f.

Recorded results for 4 compounds are shown here.
| input smiles | system tested | label value |
| --- | --- | --- |
| CC(C)c1nn(-c2c(Cl)cccc2Cl)c2nc(Cc3ccc(OCCO)cc3)[nH]c(=O)c12 | Ribosomal protein S6 kinase alpha-4 (Homo sapiens) (UniProt O75676) | f |
| CC(C)(C)c1nc2c3ccc(F)cc3c3c(=O)[nH]ccc3c2[nH]1 | Ribosomal protein S6 kinase alpha-4 (Homo sapiens) (UniProt O75676) | f |
| COc1cc2nccc(Oc3ccc(NC(=S)NC(=O)c4ccccc4C)cc3)c2cc1OC | Ribosomal protein S6 kinase alpha-4 (Homo sapiens) (UniProt O75676) | t |
| CCN(CC)CCNC(=O)c1c(C)[nH]c(/C=C2\C(=O)Nc3ccc(Cl)cc32)c1C | Ribosomal protein S6 kinase alpha-4 (Homo sapiens) (UniProt O75676) | f |

Given COc1ccc(Cl)cc1NC(=O)Nc1cc(C)nc2ccccc12 , state whether its residual activity is at least 90%.
t

---

Below: a set of entries, each annotated with reported residual activity.
molecular target: Serine/threonine-protein kinase MRCK alpha (Homo sapiens) (UniProt Q5VT25); conditions: at 10 µM
Sequence (Q5VT25 whole entry): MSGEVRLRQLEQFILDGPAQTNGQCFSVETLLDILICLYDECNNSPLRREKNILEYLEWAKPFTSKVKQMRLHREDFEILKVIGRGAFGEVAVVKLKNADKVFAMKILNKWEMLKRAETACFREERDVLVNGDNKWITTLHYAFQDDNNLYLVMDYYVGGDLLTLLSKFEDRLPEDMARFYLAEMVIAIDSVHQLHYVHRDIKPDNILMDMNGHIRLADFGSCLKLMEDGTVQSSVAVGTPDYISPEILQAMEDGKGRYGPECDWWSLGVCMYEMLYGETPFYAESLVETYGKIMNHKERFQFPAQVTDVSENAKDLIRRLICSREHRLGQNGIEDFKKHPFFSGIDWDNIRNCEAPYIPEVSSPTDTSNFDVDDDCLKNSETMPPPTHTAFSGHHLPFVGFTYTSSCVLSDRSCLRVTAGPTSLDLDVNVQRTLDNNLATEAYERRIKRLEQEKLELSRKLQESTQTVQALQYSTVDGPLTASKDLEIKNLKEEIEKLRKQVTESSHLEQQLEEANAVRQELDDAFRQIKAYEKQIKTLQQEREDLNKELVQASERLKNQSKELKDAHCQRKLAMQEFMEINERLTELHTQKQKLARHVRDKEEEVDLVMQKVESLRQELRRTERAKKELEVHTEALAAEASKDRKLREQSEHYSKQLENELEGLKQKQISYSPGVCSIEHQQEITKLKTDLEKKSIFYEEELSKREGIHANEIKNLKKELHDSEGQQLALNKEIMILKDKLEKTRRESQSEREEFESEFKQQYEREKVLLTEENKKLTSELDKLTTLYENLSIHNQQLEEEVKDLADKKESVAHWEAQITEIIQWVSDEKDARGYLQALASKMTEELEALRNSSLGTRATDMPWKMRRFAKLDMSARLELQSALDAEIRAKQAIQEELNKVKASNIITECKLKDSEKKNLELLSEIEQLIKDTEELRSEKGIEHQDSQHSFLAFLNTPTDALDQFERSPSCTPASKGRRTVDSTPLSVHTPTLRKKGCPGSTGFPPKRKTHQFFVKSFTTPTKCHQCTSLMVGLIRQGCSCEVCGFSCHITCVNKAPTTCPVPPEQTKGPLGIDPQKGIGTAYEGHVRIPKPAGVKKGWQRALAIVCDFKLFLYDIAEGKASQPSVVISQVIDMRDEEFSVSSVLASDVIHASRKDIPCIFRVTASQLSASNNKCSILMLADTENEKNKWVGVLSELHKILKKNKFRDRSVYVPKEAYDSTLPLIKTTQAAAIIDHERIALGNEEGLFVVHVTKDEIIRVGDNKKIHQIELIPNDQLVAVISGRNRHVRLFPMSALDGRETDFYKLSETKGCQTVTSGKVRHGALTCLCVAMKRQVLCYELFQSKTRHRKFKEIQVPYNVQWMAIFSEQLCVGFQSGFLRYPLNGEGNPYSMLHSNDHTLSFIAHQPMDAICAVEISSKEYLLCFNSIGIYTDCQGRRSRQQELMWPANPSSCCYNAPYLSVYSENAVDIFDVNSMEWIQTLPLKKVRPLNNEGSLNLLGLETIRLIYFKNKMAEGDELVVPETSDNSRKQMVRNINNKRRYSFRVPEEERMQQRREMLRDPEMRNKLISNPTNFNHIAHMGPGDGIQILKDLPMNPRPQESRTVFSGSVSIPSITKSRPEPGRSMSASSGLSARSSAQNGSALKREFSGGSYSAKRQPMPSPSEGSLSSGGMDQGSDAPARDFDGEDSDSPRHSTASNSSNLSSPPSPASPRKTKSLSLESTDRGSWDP
Answer with the value and then the unit.

Worked examples follow.
| input smiles | residual activity |
| --- | --- |
| COc1cc2nccc(Oc3ccc(NC(=O)Nc4cc(C)on4)c(Cl)c3)c2cc1OC | 102% |
| O=C(CCCc1ccc(-c2ccccc2F)cc1)Nc1ccc(O)cc1 | 136% |

Kindly indicate its recorded residual activity. Item: O=C(c1ccccc1)c1ccc(N2CCOCC2)cc1O
100%

---

target: Receptor-type tyrosine-protein kinase FLT3 (Homo sapiens); conditions: at 10 µM
Below: a set of entries, each annotated with reported residual activity.
Numbers only; they are read as %.

| input smiles | value unit | residual activity |
| --- | --- | --- |
| O=c1cc(N2CCOCC2)oc2c1ccc1ccccc12 | % | 97 |
| CC(C)c1nn(-c2c(Cl)cccc2Cl)c2nc(Cc3ccc(OCCO)cc3)[nH]c(=O)c12 | % | 81 |
| O=c1cc(N2CCNCC2)oc2c(-c3ccccc3)cccc12 | % | 81 |
| O=S(=O)(NCCNC/C=C/c1ccc(Br)cc1)c1cccc2cnccc12 | % | 46 |
| c1ccc(-c2cnc(Nc3ccc(OCCN4CCCC4)cc3)s2)cc1 | % | 0 |
| COc1ccc(-c2cnc3c(-c4ccsc4)cnn3c2)cc1 | % | 19 |

Kindly indicate its recorded residual activity. Item: COc1ccc2c(c1)c(C1=C(c3c[nH]c4ccccc34)C(=O)NC1=O)cn2CCCN(C)C
0

Kindly indicate its recorded residual activity. Item: CCOC(=O)c1c(C)[nH]c(/C=C2\C(=O)Nc3ccccc32)c1C
9

---

Molecular target: Muscle, skeletal receptor tyrosine-protein kinase (Homo sapiens) (UniProt O15146)
Sequence (whole entry): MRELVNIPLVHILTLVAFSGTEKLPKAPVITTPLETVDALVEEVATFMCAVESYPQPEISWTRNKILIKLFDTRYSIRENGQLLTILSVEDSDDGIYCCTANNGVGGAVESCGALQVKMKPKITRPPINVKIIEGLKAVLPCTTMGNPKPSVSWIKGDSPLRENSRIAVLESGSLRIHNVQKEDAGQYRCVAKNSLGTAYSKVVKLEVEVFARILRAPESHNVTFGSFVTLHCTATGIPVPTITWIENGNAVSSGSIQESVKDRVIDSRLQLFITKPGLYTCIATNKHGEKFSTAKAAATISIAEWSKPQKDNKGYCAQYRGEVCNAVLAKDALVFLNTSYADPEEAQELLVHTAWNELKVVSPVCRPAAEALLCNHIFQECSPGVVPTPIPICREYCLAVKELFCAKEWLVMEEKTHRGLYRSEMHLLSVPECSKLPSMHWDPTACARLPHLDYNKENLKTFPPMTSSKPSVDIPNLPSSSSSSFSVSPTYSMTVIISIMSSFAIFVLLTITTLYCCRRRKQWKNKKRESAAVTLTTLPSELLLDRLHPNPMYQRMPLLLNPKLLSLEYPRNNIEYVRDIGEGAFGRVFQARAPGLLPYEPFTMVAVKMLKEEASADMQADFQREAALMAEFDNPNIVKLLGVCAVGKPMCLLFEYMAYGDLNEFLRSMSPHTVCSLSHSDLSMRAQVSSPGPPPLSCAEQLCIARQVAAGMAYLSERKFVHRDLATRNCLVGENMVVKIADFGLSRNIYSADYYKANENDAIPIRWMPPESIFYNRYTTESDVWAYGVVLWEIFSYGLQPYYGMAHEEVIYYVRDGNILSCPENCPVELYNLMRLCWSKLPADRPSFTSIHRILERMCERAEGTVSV
Details: at 10 µM
Lab note: compare residual activity with 80%, writing true if less and false if equal or more.

| input smiles | label value |
| --- | --- |
| O=C(O)/C=C/c1cc(Br)c(Br)c(Br)c1Br | false |
| O=C1NC(=O)C(c2c[nH]c3ccccc23)=C1c1c[nH]c2ccccc12 | true |
| O=C1NC(=O)C(c2cn(CCCn3ccnc3)c3ccccc23)=C1Nc1ccccc1 | true |
| COc1cc2nccc(Oc3ccc(NC(=S)NC(=O)c4ccccc4C)cc3)c2cc1OC | true |
| COc1cc2ncnc(Nc3cccc(Cl)c3)c2cc1OC | false |
| CN(C)S(=O)(=O)c1ccc2c(c1)/C(=C/c1cc3c([nH]1)CCCC3)C(=O)N2 | true |
| O=c1cc(N2CCOCC2)oc2c1ccc1ccccc12 | false |
| COc1ccc(CNC(=O)Nc2ncc([N+](=O)[O-])s2)cc1 | true |
| NC(=O)Nc1sc(-c2ccc(F)cc2)cc1C(N)=O | true |
| CCN1/C(=C/C(C)=O)Sc2ccc(OC)cc21 | true |

residual activity under 80%? Item: COc1ccc(Cl)cc1NC(=O)Nc1cc(C)nc2ccccc12
true

residual activity under 80%? Item: O=C1Cc2c([nH]c3ccc([N+](=O)[O-])cc23)-c2ccccc2N1
true

residual activity under 80%? Item: Nc1ncnc2c1c(-c1ccc(Oc3ccccc3)cc1)cn2C1CCCC1
true

residual activity under 80%? Item: Nc1n[nH]c2nc3ccccc3nc12
false

residual activity under 80%? Item: COc1ccc2c(c1)c(C1=C(c3c[nH]c4ccccc34)C(=O)NC1=O)cn2CCCN(C)C
true

residual activity under 80%? Item: CCCC(=O)Oc1ccc2[nH]c(C(=O)c3cc4ccccc4[nH]3)cc2c1
true

---

target: Proto-oncogene tyrosine-protein kinase ROS (Homo sapiens) (UniProt P08922); details: at 1 µM
Sequence (P08922 whole entry): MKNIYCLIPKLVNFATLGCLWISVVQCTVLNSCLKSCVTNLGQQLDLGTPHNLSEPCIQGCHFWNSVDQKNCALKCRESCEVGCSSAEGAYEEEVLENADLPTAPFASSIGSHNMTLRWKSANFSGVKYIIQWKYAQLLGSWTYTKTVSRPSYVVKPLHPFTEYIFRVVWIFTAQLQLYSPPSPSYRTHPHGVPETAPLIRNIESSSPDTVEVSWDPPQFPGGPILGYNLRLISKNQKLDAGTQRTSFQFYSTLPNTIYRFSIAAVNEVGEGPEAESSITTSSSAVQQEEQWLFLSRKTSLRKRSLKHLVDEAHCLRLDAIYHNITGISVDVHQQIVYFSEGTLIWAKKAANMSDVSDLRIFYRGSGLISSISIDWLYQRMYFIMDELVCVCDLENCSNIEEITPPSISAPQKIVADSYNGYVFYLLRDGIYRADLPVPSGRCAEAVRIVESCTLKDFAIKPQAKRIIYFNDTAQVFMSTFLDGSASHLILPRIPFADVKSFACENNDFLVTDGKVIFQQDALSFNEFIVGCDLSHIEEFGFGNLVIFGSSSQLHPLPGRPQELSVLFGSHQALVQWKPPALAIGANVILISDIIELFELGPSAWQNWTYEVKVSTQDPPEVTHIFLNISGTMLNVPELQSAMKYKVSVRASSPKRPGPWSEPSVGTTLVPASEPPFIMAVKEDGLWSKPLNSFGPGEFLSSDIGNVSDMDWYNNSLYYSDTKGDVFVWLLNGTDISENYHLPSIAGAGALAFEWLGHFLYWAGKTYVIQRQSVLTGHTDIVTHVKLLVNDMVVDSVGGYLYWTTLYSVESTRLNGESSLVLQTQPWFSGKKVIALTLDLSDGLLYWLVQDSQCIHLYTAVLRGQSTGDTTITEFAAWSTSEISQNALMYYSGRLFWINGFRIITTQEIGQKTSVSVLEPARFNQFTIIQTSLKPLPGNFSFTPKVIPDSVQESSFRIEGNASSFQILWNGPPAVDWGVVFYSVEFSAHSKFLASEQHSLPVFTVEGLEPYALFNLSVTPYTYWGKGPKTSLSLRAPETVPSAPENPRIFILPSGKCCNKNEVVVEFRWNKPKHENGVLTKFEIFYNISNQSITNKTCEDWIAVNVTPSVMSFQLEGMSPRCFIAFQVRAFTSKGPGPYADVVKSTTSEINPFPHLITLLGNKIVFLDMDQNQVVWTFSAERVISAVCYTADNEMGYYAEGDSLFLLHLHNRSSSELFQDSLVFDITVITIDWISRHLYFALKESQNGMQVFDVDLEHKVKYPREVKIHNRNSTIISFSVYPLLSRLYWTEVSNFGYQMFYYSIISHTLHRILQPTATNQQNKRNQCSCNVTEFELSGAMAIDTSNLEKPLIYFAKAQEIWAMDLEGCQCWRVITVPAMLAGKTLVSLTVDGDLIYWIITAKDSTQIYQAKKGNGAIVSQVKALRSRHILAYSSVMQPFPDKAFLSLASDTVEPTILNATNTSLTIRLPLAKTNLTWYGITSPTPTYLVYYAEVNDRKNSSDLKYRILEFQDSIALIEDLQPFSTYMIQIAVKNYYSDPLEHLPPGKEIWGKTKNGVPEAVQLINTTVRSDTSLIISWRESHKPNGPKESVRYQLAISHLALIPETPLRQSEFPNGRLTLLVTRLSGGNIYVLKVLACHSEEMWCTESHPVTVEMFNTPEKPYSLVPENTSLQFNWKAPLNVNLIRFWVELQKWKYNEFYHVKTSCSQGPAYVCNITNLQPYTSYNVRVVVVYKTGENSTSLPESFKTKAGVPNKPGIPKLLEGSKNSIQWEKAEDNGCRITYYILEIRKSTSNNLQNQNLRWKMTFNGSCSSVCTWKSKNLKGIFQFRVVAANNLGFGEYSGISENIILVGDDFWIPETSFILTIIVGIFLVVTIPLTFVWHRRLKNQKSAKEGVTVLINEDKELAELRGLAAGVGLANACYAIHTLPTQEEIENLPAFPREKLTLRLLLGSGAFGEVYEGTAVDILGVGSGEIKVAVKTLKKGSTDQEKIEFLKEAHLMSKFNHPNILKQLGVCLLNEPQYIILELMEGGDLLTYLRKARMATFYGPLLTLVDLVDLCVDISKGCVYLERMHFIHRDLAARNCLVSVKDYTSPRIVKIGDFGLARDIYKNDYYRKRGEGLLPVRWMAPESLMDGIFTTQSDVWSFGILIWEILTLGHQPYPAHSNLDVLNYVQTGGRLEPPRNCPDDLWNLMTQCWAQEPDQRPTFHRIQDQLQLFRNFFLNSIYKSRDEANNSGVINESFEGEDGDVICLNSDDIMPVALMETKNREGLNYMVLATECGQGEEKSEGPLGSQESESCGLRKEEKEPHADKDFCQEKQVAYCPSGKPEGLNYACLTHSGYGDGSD
Below: a set of entries, each annotated with reported residual activity.

Worked examples follow.
| input smiles | residual activity |
| --- | --- |
| Nc1ncnc2[nH]nc(Nc3ccc(F)cc3)c12 | 104% |
| Nc1nc(Nc2ccc(S(N)(=O)=O)cc2)nn1C(=O)c1c(F)cccc1F | 101% |
| COc1ccc(COc2ccc(Cc3cnc(N)nc3N)cc2OC)cc1 | 81% |

Kindly indicate its recorded residual activity. Item: COc1cc2nccc(Oc3ccc(NC(=S)NC(=O)c4ccccc4C)cc3)c2cc1OC
79%

---

molecular target: RAC-gamma serine/threonine-protein kinase (Homo sapiens) (UniProt Q9Y243); conditions: at 10 µM
Sequence (Q9Y243 whole entry): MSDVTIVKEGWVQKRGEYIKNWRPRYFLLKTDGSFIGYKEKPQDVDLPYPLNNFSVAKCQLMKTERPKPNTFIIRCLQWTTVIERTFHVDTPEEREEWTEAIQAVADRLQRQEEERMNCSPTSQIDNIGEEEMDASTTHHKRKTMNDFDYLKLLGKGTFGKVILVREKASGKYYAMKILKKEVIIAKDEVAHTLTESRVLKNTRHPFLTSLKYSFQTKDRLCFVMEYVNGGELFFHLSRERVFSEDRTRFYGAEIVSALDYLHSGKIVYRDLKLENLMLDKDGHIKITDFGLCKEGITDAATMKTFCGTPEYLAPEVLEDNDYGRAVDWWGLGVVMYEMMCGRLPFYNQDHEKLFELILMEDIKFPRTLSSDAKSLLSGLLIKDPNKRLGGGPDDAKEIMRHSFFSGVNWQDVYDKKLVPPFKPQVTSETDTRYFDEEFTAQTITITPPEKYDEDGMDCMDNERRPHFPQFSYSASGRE
readout kind: residual activity (%)
Numbers only; they are read as %.

Worked examples follow.
| input smiles | system tested | residual activity / % |
| --- | --- | --- |
| O=C(O)/C=C/c1cc(Br)c(Br)c(Br)c1Br | RAC-gamma serine/threonine-protein kinase (Homo sapiens) (UniProt Q9Y243) | 61 |
| CN([C@@H](Cc1ccc(OS(=O)(=O)c2cccc3cnccc23)cc1)C(=O)N1CCN(c2ccccc2)CC1)S(=O)(=O)c1cccc2cnccc12 | RAC-gamma serine/threonine-protein kinase (Homo sapiens) (UniProt Q9Y243) | 60 |

Kindly indicate its recorded residual activity. Item: O=C1Nc2ccc(Cl)cc2/C1=C/c1cc(Cl)c(O)c(Cl)c1
80

---

biological target: CDK6/cyclin D3 (Homo sapiens) (UniProt P30281+Q00534); details: at 1 µM
Description: Millipore: Percentage of residual kinase activity of CDK6 at 1uM relative to control. Control inhibitor: Phosphoric acid* at 0.3uM. Buffer: 8 mM MOPS pH 7.0, 0.2 mM EDTA
readout kind: residual activity (%)
Numbers only; they are read as %.

| input smiles | system tested | residual activity, % |
| --- | --- | --- |
| CC(C)N(CCC(=O)c1ccc2ccccc2c1)Cc1ccccc1 | CDK6/cyclin D3 (Homo sapiens) (UniProt P30281+Q00534) | 87 |
| CC(C)(C)n1nc(Cc2cccc3ccccc23)c2c(N)ncnc21 | CDK6/cyclin D3 (Homo sapiens) (UniProt P30281+Q00534) | 87 |
| CCCC(=O)Oc1ccc2[nH]c(C(=O)c3cc4ccccc4[nH]3)cc2c1 | CDK6/cyclin D3 (Homo sapiens) (UniProt P30281+Q00534) | 79 |
| N#C/C(=C1/Nc2ccccc2S1)c1ccnc(NCCc2cccnc2)n1 | CDK6/cyclin D3 (Homo sapiens) (UniProt P30281+Q00534) | 100 |
| O=C1Cc2c([nH]c3ccc(Br)cc23)-c2ccccc2N1 | CDK6/cyclin D3 (Homo sapiens) (UniProt P30281+Q00534) | 78 |

Kindly indicate its recorded residual activity. Item: O=C1Nc2ccc(Cl)cc2/C1=C/c1cc(Cl)c(O)c(Cl)c1
89

Kindly indicate its recorded residual activity. Item: CC(C)(C)c1nc2c3ccc(F)cc3c3c(=O)[nH]ccc3c2[nH]1
71

Kindly indicate its recorded residual activity. Item: Nc1ncnc2[nH]nc(Nc3ccc(F)cc3)c12
107

Kindly indicate its recorded residual activity. Item: COc1cc2c(cc1OC)-c1n[nH]c(Nc3cccc(F)c3)c1C2
76

Kindly indicate its recorded residual activity. Item: CCOc1nc(NC(=O)Cc2cc(OC)ccc2OC)cc(N)c1C#N
100

Kindly indicate its recorded residual activity. Item: Cn1c2ccccc2c2c3c(c4c5ccccc5n(CCC#N)c4c21)CNC3=O
48

Kindly indicate its recorded residual activity. Item: COc1ccc(Cl)cc1NC(=O)Nc1cc(C)nc2ccccc12
95

Kindly indicate its recorded residual activity. Item: O=C(O)/C=C/c1cc(Br)c(Br)c(Br)c1Br
100

Kindly indicate its recorded residual activity. Item: Nc1n[nH]c2nc3ccccc3nc12
92

Kindly indicate its recorded residual activity. Item: O=c1cc(N2CCNCC2)oc2c(-c3ccccc3)cccc12
93

Kindly indicate its recorded residual activity. Item: Nc1ncnc2c1cnn2-c1ccccc1
95

Kindly indicate its recorded residual activity. Item: CN(C)S(=O)(=O)c1ccc2c(c1)/C(=C/c1cc3c([nH]1)CCCC3)C(=O)N2
96

Kindly indicate its recorded residual activity. Item: O=C1C(Cl)=C(N2C(=O)CCC2=O)C(=O)c2ccccc21
98

Kindly indicate its recorded residual activity. Item: NC(=O)Nc1sc(-c2ccc(F)cc2)cc1C(N)=O
78
